tested on: MCF7 cells; assay: MTS cell viability assay, MCF7; format: cell-based; settings: Homo sapiens, breast cancer cell line, 48 h exposure, read-out: IC50 ± SD, MCF7
pIC50: −log10 of the molar value.
readout: pIC50

>>> reportedvalue("CN1CCC(Oc2ccc(-c3nc4ccc(-c5nc6ccc(N7CCN(C)CC7)cc6[nH]5)cc4[nH]3)cc2)CC1 [Compound 2a]")
4.31
>>> reportedvalue("CN(C)CCCOc1ccc(-c2nc3ccc(-c4nc5ccc(N6CCN(C)CC6)cc5[nH]4)cc3[nH]2)cc1 [Compound 2b]")
4.87
>>> reportedvalue("COCCOc1ccc(-c2nc3ccc(-c4nc5ccc(N6CCN(C)CC6)cc5[nH]4)cc3[nH]2)cc1 [Compound 2d]")
4.66
>>> reportedvalue("CN1CCN(c2ccc3nc(-c4ccc5nc(-c6ccc(OCCC(C)(C)C)cc6)[nH]c5c4)[nH]c3c2)CC1 [Compound 2e]")
5.69
>>> reportedvalue("CCOc1ccc(-c2nc3cc(-c4nc5cc(N6CCN(C)CC6)ccc5[nH]4)ccc3[nH]2)cc1 [Compound V]")
5.03

Data credit: paper PMC6151825
